This listing pairs molecules with measured TOX-HELA_EC50.
system: HeLa cells; assay: Cytotoxicity in HeLa cells, ATP content (ATPlite kit); format: cell-based; details: HeLa cells, three days incubation, ATP content
metric: TOX-HELA_EC50

- molecule: "O=c1n(Cc2nc3nc(Cl)ccc3n2CCCC(F)(F)F)c2cnccc2n1C1CC1 [Compound 39]"
  metric: "TOX-HELA_EC50"
  measurement: ">98.3603 µM"
- molecule: "CC(C)(C)C(=O)OCCCCn1c(Cn2c(=O)n(C3CC3)c3ccncc32)nc2nc(Cl)ccc21 [Compound 3]"
  metric: "TOX-HELA_EC50"
  measurement: ">9.836 µM"
- molecule: "O=c1n(Cc2nc3ncccc3n2CCCF)c2cnccc2n1C1CC1 [Compound 11]"
  metric: "TOX-HELA_EC50"
  measurement: ">9.836 µM"
- molecule: "O=c1n(Cc2nc3nc(Cl)ccc3n2CCCCF)c2cnccc2n1C1CC1 [Compound 40]"
  metric: "TOX-HELA_EC50"
  measurement: ">98.3603 µM"
- molecule: "CC(C)CCn1c(Cn2c(=O)n(C3CC3)c3ccncc32)nc2cc(CN)cnc21 [Compound 17]"
  metric: "TOX-HELA_EC50"
  measurement: ">98.3603 µM"
- molecule: "O=c1n(Cc2nc3ncccc3n2CCCCF)c2cnccc2n1C1CC1 [Compound 42]"
  metric: "TOX-HELA_EC50"
  measurement: ">98.3603 µM"
- molecule: "CC(C)CCn1c(Cn2c(=O)n(C3CC3)c3ccncc32)nc2cc(C#N)cnc21 [Compound 27]"
  metric: "TOX-HELA_EC50"
  measurement: ">98.3603 µM"
- molecule: "CC(C)CCn1c(Cn2c(=O)n(C3CC3)c3ccncc32)nc2cc(B(O)O)cnc21 [Compound 23]"
  metric: "TOX-HELA_EC50"
  measurement: ">98.3603 µM"

----------
system: HeLa cells; experiment: Cytotoxicity in HeLa cells, ATP content (ATPlite kit); type: cell-based; details: HeLa cells, three days incubation, ATP content
metric: TOX-HELA_EC50

- compound: "CC(C)CCn1c(Cn2c(=O)n(C3CC3)c3ccncc32)nc2ccncc21 [Compound 34]"
  metric: "TOX-HELA_EC50"
  measurement: ">98.3603 µM"
- compound: "CC(C)CCn1c(Cn2c(=O)n(C3CC3)c3ccncc32)nc2cccnc21 [Compound 24]"
  metric: "TOX-HELA_EC50"
  measurement: ">98.3603 µM"
- compound: "CC(C)CCn1c(Cn2c(=O)n(C3CC3)c3ccccc32)nc2nc(Cl)ccc21 [Compound 13]"
  metric: "TOX-HELA_EC50"
  measurement: ">9.84 µM"
- compound: "CN(C)c1nccc2c1nc(Cn1c(=O)n(C3CC3)c3ccncc31)n2CCCCO [Compound 37]"
  metric: "TOX-HELA_EC50"
  measurement: ">9.836 µM"

----------
tested on: HeLa cells; assay: Cytotoxicity in HeLa cells, ATP content (ATPlite kit); assay type: cell-based; conditions: HeLa cells, three days incubation, ATP content

- compound: "O=c1n(Cc2nc3cc(Br)cnc3n2CCCCO)c2cnccc2n1C1COC1 [Compound 20]"
  targetEntity: "HeLa cells"
  TOX-HELA_EC50: ">9.836 µM"
- compound: "CS(=O)(=O)CCCn1c(Cn2c(=O)n(C3CC3)c3ccncc32)nc2ncccc21 [Compound 7]"
  targetEntity: "HeLa cells"
  TOX-HELA_EC50: ">9.836 µM"
- compound: "CC(C)CCn1c(Cn2c(=O)n(C3CC3)c3ccncc32)nc2cnccc21 [Compound 33]"
  targetEntity: "HeLa cells"
  TOX-HELA_EC50: ">98.3603 µM"
- compound: "CC(C)CCn1c(Cn2c(=O)n(C3CC3)c3ccncc32)nc2nc(Cl)ccc21 [Compound 1]"
  targetEntity: "HeLa cells"
  TOX-HELA_EC50: ">9.836 µM"
- compound: "O=c1n(Cc2nc3cc(Br)cnc3n2CCCCO)c2cnccc2n1C1CC1 [Compound 19]"
  targetEntity: "HeLa cells"
  TOX-HELA_EC50: ">98.3603 µM"
- compound: "CC(C)CCn1c(Cn2c(=O)n(C(C)C)c3ccnc(C#N)c32)nc2cccnc21 [Compound 29]"
  targetEntity: "HeLa cells"
  TOX-HELA_EC50: ">98.3603 µM"
- compound: "CC(C)CCn1c(Cn2c(=O)n(C3CC3)c3ccncc32)nc2ncccc21 [Compound 5]"
  targetEntity: "HeLa cells"
  TOX-HELA_EC50: ">98.3603 µM"
- compound: "CC(C)CCn1c(Cn2c(=O)n(C3COC3)c3ccncc32)nc2ncccc21 [Compound 9]"
  targetEntity: "HeLa cells"
  TOX-HELA_EC50: ">9.836 µM"
- compound: "O=c1n(Cc2nc3nc(Cl)ccc3n2CCCCO)c2cnccc2n1C1CC1 [Compound 14]"
  targetEntity: "HeLa cells"
  TOX-HELA_EC50: ">9.84 µM"
- compound: "CC(C)CCn1c(Cn2c(=O)n(C3CC3)c3ccc(F)cc32)nc2cnccc21 [Compound 32]"
  targetEntity: "HeLa cells"
  TOX-HELA_EC50: ">9.836 µM"
- compound: "CC(C)CCn1c(Cn2c(=O)n(C(C)C)c3ccnc(Cl)c32)nc2cccnc21 [Compound 25]"
  targetEntity: "HeLa cells"
  TOX-HELA_EC50: ">24.5901 µM"
- compound: "COC(=O)c1cnc2c(c1)nc(Cn1c(=O)n(C3CC3)c3ccncc31)n2CCC(C)C [Compound 26]"
  targetEntity: "HeLa cells"
  TOX-HELA_EC50: ">98.3603 µM"
- compound: "CC(C)CCn1c(Cn2c(=O)n(C3COC3)c3ccncc32)nc2nc(Cl)ccc21 [Compound 2]"
  targetEntity: "HeLa cells"
  TOX-HELA_EC50: ">9.836 µM"
- compound: "CC(C)CCn1c(Cn2c(=O)n(C3CC3)c3ccncc32)nc2cc(Br)cnc21 [Compound 16]"
  targetEntity: "HeLa cells"
  TOX-HELA_EC50: ">98.3603 µM"
- compound: "CC(C)CCn1c(Cn2c(=O)n(C3CC3)c3ccccc32)nc2ncccc21 [Compound 4]"
  targetEntity: "HeLa cells"
  TOX-HELA_EC50: ">9.836 µM"
- compound: "CC(C)CCn1c(Cn2c(=O)n(C3COC3)c3ccncc32)nc2cnccc21 [Compound 36]"
  targetEntity: "HeLa cells"
  TOX-HELA_EC50: ">9.836 µM"
- compound: "O=c1n(Cc2nc3c(Cl)nccc3n2CCCCOCc2ccccc2)c2cnccc2n1C1CC1 [Compound 38]"
  targetEntity: "HeLa cells"
  TOX-HELA_EC50: ">98.3603 µM"
- compound: "CC(C)CCn1c(Cn2c(=O)n(C3CC3)c3ccccc32)nc2cc(Br)cnc21 [Compound 30]"
  targetEntity: "HeLa cells"
  TOX-HELA_EC50: ">9.84 µM"

All values here come from patent US9321767B2.
